- Test system: SF-268
- protocol.notes: NCI tumour cell line growth inhibition, 48 h
The source made the active and inactive calls. No stated cut-off is given here; in the data, active = GI50 up to about 1.1 µM and inactive = higher.
Tick one outcome: active, inactive

Consider the worked cases shown below.
Ask: Any idea what this test logged for `N=NCC(=O)OC(COCc1ccccc1)COCc1ccccc1` ?
Reply: inactive

Ask: Any idea what this test logged for CCCCCNC(=O)OC1CCn2c1nc1c2C(=O)C(C)=C(N2CC2)C1=O (stereo unspecified) ?
Reply: active

Ask: Any idea what this test logged for `O=C(/C=C/c1ccc(F)c(F)c1)OCCc1ccccc1` ?
Reply: inactive

Ask: Any idea what this test logged for `COC(=O)c1ccc(Cc2ccc(C(=O)OC)o2)o1` ?
Reply: inactive

Ask: Any idea what this test logged for `N#Cc1c(N2CCCC2)nsc1NCc1ccccc1` ?
Reply: inactive

# input for lookup
Ask: Any idea what this test logged for `CC(C)(Oc1ccc2c(=O)cc(-c3ccccc3)oc2c1)C(=O)Nc1c(Cl)cccc1Cl` ?
Reply: inactive

---

- Tested on: LOX IMVI
- protocol.notes: NCI tumour cell line growth inhibition, 48 h
Calls of active or inactive are those of the source. No stated cut-off is given here; in the data, active = GI50 up to about 1.1 µM and inactive = higher.
Tick one outcome: active, inactive

Ask: Any idea what this test logged for `O=c1c2ccccc2sc2ccccc12` ?
Reply: inactive

Ask: Any idea what this test logged for CCCCCNC(=O)OC1CCn2c1nc1c2C(=O)C(C)=C(N2CC2)C1=O (stereo unspecified) ?
Reply: active

Further cases:
Ask: Any idea what this test logged for `CCN(CC)CCN(/C(=N/c1ccccc1)N1CCCCC1)c1ccccc1` ?
Reply: inactive

Ask: Any idea what this test logged for `COC[C@@H](/N=C/c1ccc(OC)cc1)C(C)C` ?
Reply: inactive

Ask: Any idea what this test logged for Nc1ncnc2c1ncn2C1OC(CO)C(O)C(O)C1O (stereo unspecified) ?
Reply: inactive

Ask: Any idea what this test logged for `O=C(NNC(=O)c1csc(NC(=S)NC2CCCCC2)n1)c1ccccc1` ?
Reply: inactive

---

- Test system: HOP-92
- protocol.notes: NCI tumour cell line growth inhibition, 48 h
The source made the active and inactive calls. No stated cut-off is given here; in the data, active = GI50 up to about 1.1 µM and inactive = higher.
Tick one outcome: active, inactive

Consider the worked cases shown below.
Ask: Any idea what this test logged for `COc1ccc(-c2c(-c3ccc(OC)cc3)n3c(=O)n(C)c(=O)n23)cc1` ?
Reply: inactive

Ask: Any idea what this test logged for `Cc1c2cc[n+]([O-])cc2c(C)c2c1[nH]c1ccccc12` ?
Reply: inactive

Ask: Any idea what this test logged for `O=c1[nH]c(=O)n(CCOc2ccccc2)cc1Nc1ccccc1` ?
Reply: inactive

Further cases:
Ask: Any idea what this test logged for `COc1cc(S(=O)(=O)N/N=C/c2cc(Br)c(O)c(OC)c2)c(OC)cc1NC(C)=O` ?
Reply: inactive

---

- Tested on: SNB-75
- protocol.notes: NCI tumour cell line growth inhibition, 48 h
Calls of active or inactive are those of the source. Rule as the data show it: active = GI50 up to about 1.1 µM and inactive = higher.
test.readout: GI50

Ask: Please report GI50 for the following compound: `C/C(=N/NC(=S)N(C)CCc1ccccn1)c1cnccn1`
Reply: 4.19 µM (inactive)

Ask: Please report GI50 for the following compound: `COc1ccccc1/N=C(\N)N/N=C/c1c[nH]c2ccccc12`
Reply: 12.3 µM (inactive)

Further cases:
Ask: Please report GI50 for the following compound: CC1OC2OC3C(OCC(O)C3O)OC(=O)[C@]34CCC(C)(C)CC3C3=CCC5[C@@]6(C)C[C@H](O)[C@H](OC7OC(CO)C(O)C(O)C7OC7OCC(OC(=O)CC(C)(O)CC(=O)OC1C(OC1OC(CO)C(O)C(O)C1O)C2O)C(O)C7O)[C@@](C)(CO)C6CC[C@@]5(C)[C@]3(C)CC4 (some centres undefined)
Reply: 11.5 µM (inactive)

Ask: Please report GI50 for the following compound: CCC12CCCC(=O)N1C(CO)C(c1ccccc1)O2 (centres undefined)
Reply: > 100 µM (inactive)
